tested on: THRa homodimer (NR concentration 90 nM); experiment: PBM binding z-score (relative to random genomic background probes); higher = stronger binding; sequences stand for … in GC…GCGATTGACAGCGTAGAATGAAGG
Decide by PBM binding z-score: equal to or exceeding 0.6 means met, less means not met.

PRIMARY SEQUENCE | ASSIGNED CATEGORY
ACGAGCAGGCCAAGTTTGGGTCACTCAAACAAAG | met

[ask] hey, is PBM binding z-score for this one >= 0.6? TAGGCTAGGTCATGCGGGCCAGTATAGTGTCGGC
[reply] met

---

test system: VDR:RXRa (NR concentration 270 nM, RXRa partner concentration 90 nM); experiment: PBM binding z-score (relative to random genomic background probes); higher = stronger binding; sequences stand for … in GC…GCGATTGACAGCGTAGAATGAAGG
EXPERIMENTAL READOUT: PBM binding z-score
One number for each entry.

PRIMARY SEQUENCE | PBM binding z-score
GCATACAGGTAATACAAGGTGAAAGTCCGATTGT | 0.492
GGAACGAGGACAAAGTTGATAGCATCTGTCGACG | -0.104
CTCGAAAGGTCGGTTGAGGTGAGTCTACGGATAA | 2.45
TCTAGTTGGTCCAAGGTCACACACTCGAAATGCG | 3.77
CCAACTGGGGCAGAAAGGTTACCATACCATCCGG | 0.976

Parameter requested: PBM binding z-score. Apply to each item below.
1. CGAACTAGGTCATTGACAGGACCGTGAATAGTAA
2. ACTATTAGTTGCGACGAGGGCAACCGATAGGTTG
3. GCTGCTAGGTCAGGTTGGTTAGCTAACGGGTACG

[reply]
1.51
0.0281
0.262
